protocol_description: Quantitative High-Throughput drug screen in 47 multiple myeloma cell lines against the NCATS MIPE library collection: XG6_PLB cell viability assay (AID 1919865); also: nearly all actives have a fitted effect of over 40% in size
condition_context: XG6 myeloma viability, CellTiter-Glo ATP luminescence, 48 h; series mostly up to 45.8 µM
Inconclusive results are not listed. Active and inactive are the calls of the source. Calls follow the shape of the dose curve; as a rule, active = well fitted cell-killing curve with a large enough effect; inconclusive = small, poorly fitted or top-dose-only effect, or effect the other way; inactive = no such curve, though single readings can be large or run the other way.
Use one of these outcomes when replying: 1 (active), -1 (inactive)

Example entries begin here.
>  <compound>
O=c1[nH]c2ccc(Cl)cc2c(N[C@@H]2CN3CCC2CC3)c1-c1nc2ccccc2[nH]1

>  <cat>
1

$$$$
>  <compound>
CCc1c(C(=O)C(N)=O)c2c(OCC(=O)O)cccc2n1Cc1ccccc1

>  <cat>
-1

$$$$
>  <compound>
CC(=O)O[C@@]12CO[C@H]1C[C@H](O)[C@@]1(C)C(=O)[C@H](O)C3=C(C)[C@@H](O)C[C@@](O)([C@@H](OC(=O)c4ccccc4)[C@@H]21)C3(C)C

>  <cat>
1

$$$$
>  <compound>
O=S(=O)(CC1CS1)c1ccc(Oc2ccccc2)cc1 (configuration not stated)

>  <cat>
1

$$$$
>  <compound>
O=C(N[C@H]1CN2CCC1CC2)c1ccc(Cl)cc1

>  <cat>
1

$$$$
>  <compound>
CC=C(C)C(=O)N[C@@H](c1ccccc1)[C@@H](O)C(=O)O[C@H]1C[C@@]2(O)[C@@H](OC(=O)c3ccccc3)[C@@H]3[C@]4(OC(C)=O)CO[C@@H]4C[C@H](O)[C@@]3(C)C(=O)[C@H](OC(C)=O)C(=C1C)C2(C)C

>  <cat>
-1

$$$$

Now look at this entry.
Record request — test call for C[C@H]([C@H](O)CCC(C)(C)O)[C@H]1CC[C@@]2(O)C3=CC(=O)[C@@H]4C[C@@H](O)[C@@H](O)C[C@]4(C)[C@@H]3CC[C@]12C
-1

---

protocol_description: qHTS of pediatric cancer cell lines to identify multiple opportunities for drug repurposing: Primary screen for RD cells (AID 1347104); also: nearly all actives have a fitted effect of over 55% in size
condition_context: RD rhabdomyosarcoma viability, CellTiter-Glo luminescence, 48 h; series mostly up to 46 µM
Results filed as inconclusive are left out. Active and inactive are the calls of the source. Calls come from the whole dose curve; as a rule, active = well fitted cell-killing curve with a large enough effect; inconclusive = small, poorly fitted or top-dose-only effect; inactive = flat fitted curve, though single readings scatter.
Use one of these outcomes when replying: class 1 for active, class 0 for inactive

>  <compound>
O=c1[nH]c2ccc(Cl)cc2c(N[C@@H]2CN3CCC2CC3)c1-c1nc2ccccc2[nH]1

>  <cat>
class 1

$$$$

Now look at this entry.
Record request — test call for C#C[C@]1(O)C=C[C@@H]2[C@@H]3CCC4=CC(=O)CC[C@@H]4[C@H]3CC[C@@]21CC
class 0

---

protocol_description: Quantitative High-Throughput drug screen in 47 multiple myeloma cell lines against the NCATS MIPE library collection: XG6_PLB cell viability assay (AID 1919865); also: nearly all actives have a fitted effect of over 40% in size
condition_context: XG6 myeloma viability, CellTiter-Glo ATP luminescence, 48 h; series mostly up to 45.8 µM
Results filed as inconclusive are left out. The source made the active and inactive calls. Calls follow the shape of the dose curve; as a rule, active = well fitted cell-killing curve with a large enough effect; inconclusive = small, poorly fitted or top-dose-only effect, or effect the other way; inactive = no such curve, though single readings can be large or run the other way.
Use one of these outcomes when replying: Yes (active), No (inactive)

>  <molecule>
CO[C@H]1CCC(O[C@H]2C[C@H]([C@]3(C)CC[C@]4(C[C@H](O)[C@@H](C)[C@@H]([C@@H](C)C=C(C)C(=O)[C@H](C)C[C@H](C)C(=O)O)O4)O3)O[C@]3(O[C@@H]([C@H]4O[C@@](O)(CO)[C@H](C)C[C@H]4C)C[C@H]3C)[C@H]2C)O[C@H]1C (some centres not stated)

>  <cat>
Yes

$$$$
>  <molecule>
COCC1(CO)C(=O)C2CCN1CC2 (configuration not stated)

>  <cat>
Yes

$$$$
>  <molecule>
CC1=NN=C(c2ccc(N)cc2)c2cc3c(cc2C1)OCO3

>  <cat>
No

$$$$
>  <molecule>
NC1=NC(=O)N2CC12 (configuration not stated)

>  <cat>
Yes

$$$$
>  <molecule>
COc1ccc(C(=O)c2c(C)n(CCN3CCOCC3)c3cc(I)ccc23)cc1

>  <cat>
Yes

$$$$

Record request — test call for CC(O)=C(C#N)C(=O)Nc1cc(Br)ccc1Br
No

Record request — test call for N#C[C@H](O[C@@H]1O[C@H](CO[C@@H]2O[C@H](CO)[C@H](O)[C@H](O)[C@H]2O)[C@H](O)[C@H](O)[C@H]1O)c1ccccc1
Yes

Record request — test call for O=c1[nH]c2ccccc2n1C1CCN(Cc2ccc(-c3[nH]c4cc5ncnc5cc4nc3-c3ccccc3)cc2)CC1
Yes

Record request — test call for C[C@H]1CCCC=CC2C[C@H](O)C[C@@H]2[C@H](O)C=CC(=O)O1 (some centres not stated)
No

Record request — test call for CCN1C[C@]2(OC(=O)c3ccccc3NC(C)=O)CC[C@H](OC)[C@@]34[C@H]5CC6[C@@H](OC)C[C@](O)(C(C[C@@H]23)[C@@H]14)[C@@]5(O)[C@@H]6OC
No

Record request — test call for C[C@]12Cc3cn[nH]c3C[C@@H]1CC[C@@H]1[C@H]2CC[C@@]2(C)[C@H]1CC[C@]2(C)O
No

Record request — test call for C#CC1(O)CCC2C3CCC4=CC(=O)CCC4(C)C3CCC21C (configuration not stated)
No

Record request — test call for C=CCON=C(C[C@H]1O[C@@H]2O[C@]3(C)CC[C@@H]4[C@H](C)CC[C@@H]([C@H]1C)[C@@]24OO3)[C@H]1O[C@@H]2O[C@]3(C)CC[C@H]4[C@H](C)CC[C@@H]([C@@H]1C)[C@@]24OO3
Yes

Record request — test call for N=c1c2c(-c3ccccc3)c(-c3ccccc3)n(Cc3ccccc3)c2ncn1C1CCC(O)CC1 (configuration not stated)
Yes

---

protocol_description: qHTS for identification of novel therapeutic agents for treatment of microphthalmiaassociated transcription factor (MiT) renal cell carcinoma (RCC) (AID 1963991); also: potency is read from the fitted curve at half-maximal effect
condition_context: TFE3-RCC UOK109 viability, CellTiter-Glo, 48 h
Records with an inconclusive call do not appear. Calls of active or inactive are those of the source. The call rests on the fitted dose curve.
Listed here: items and their measured Potency.

The following molecules have reported results that may help.
>  <entry_smiles>
CC(C)(O)C=CC(=O)[C@](C)(O)[C@H]1[C@H](O)C[C@]2(C)[C@@H]3CC=C4[C@@H](C=C(O)C(=O)C4(C)C)[C@]3(C)C(=O)C[C@@]12C

>  <test_value>
83.3 nM (active)

$$$$
>  <entry_smiles>
Cc1ccccc1-n1c(Cn2cnc3c(N)ncnc32)nc2cccc(C)c2c1=O

>  <test_value>
235 nM (active)

$$$$
>  <entry_smiles>
CC[C@@H]1[C@@H](C)O[C@@](O)([C@@H](C)[C@H](O)[C@H](C)[C@H]2OC(=O)C=CC=C[C@@H](C)[C@@H]([C@@H](C)[C@@H](O)[C@H](C)[C@@]3(O)C[C@H](O[C@H]4C[C@H](O)[C@H](O)[C@H](C)O4)[C@H](CC)[C@@H](C)O3)OC(=O)C=CC=C[C@@H]2C)C[C@H]1O[C@H]1C[C@H](O)[C@H](O)[C@H](C)O1

>  <test_value>
1050 nM (active)

$$$$
>  <entry_smiles>
C[C@@H]1O[C@@H](O[C@@H]2C=C3CC[C@@H]4[C@@H](CC[C@]5(C)[C@H](c6ccc(=O)oc6)CC[C@@]45O)[C@@]3(C)CC2)[C@H](O)[C@H](O)[C@H]1O

>  <test_value>
20.9 nM (active)

$$$$

Next molecule, please.
Short answer for C[C@@]12OC(=O)[C@]1([C@@H](O)[C@@H]1C=CCCC1)NC(=O)[C@H]2CCCl : Potency was 66.2 nM (active)

---

protocol_description: qHTS of pediatric cancer cell lines to identify multiple opportunities for drug repurposing: Primary screen for NB1643 cells (AID 1347099); also: nearly all actives have a fitted effect of over 50% in size; also: potency is read from the fitted curve at half-maximal effect
condition_context: NB1643 neuroblastoma viability, CellTiter-Glo luminescence, 48 h; series mostly up to 46 µM
Results filed as inconclusive are left out. Activity calls are given as the source filed them. Calls come from the whole dose curve; as a rule, active = well fitted cell-killing curve with a large enough effect; inconclusive = small, poorly fitted or top-dose-only effect; inactive = no such curve, though single readings can be large or run the other way.
assay_endpoint: Potency

The following compounds have reported results that may help.
>  <compound>
CC(O)=C(C#N)C(=O)Nc1cc(Br)ccc1Br

>  <Potency>
1.32 µM (active)

$$$$
>  <compound>
CC(N[C@H]1C[C@H]1c1ccccc1)c1ccc2c(c1)OCCO2 (stereo not given in full)

>  <Potency>
inactive

$$$$
>  <compound>
Cc1c(N)nc([C@H](CC(N)=O)NC[C@@H](N)C(N)=O)nc1C(=O)N[C@H](C(=O)N[C@@H](C)[C@H](O)[C@@H](C)C(=O)N[C@@H](C(=O)NCCc1nc(-c2nc(C(=O)NCCC[S+](C)C)cs2)cs1)[C@@H](C)O)C(O[C@H]1O[C@H](CO)[C@H](O)[C@@H](O)[C@@H]1O[C@H]1O[C@H](CO)[C@@H](O)[C@H](OC(N)=O)[C@H]1O)c1cnc[nH]1 (stereo not given in full)

>  <Potency>
1.66 µM (active)

$$$$
>  <compound>
O=c1cccc2n1CC1CNC[C@H]2C1

>  <Potency>
5.9 µM (active)

$$$$

Short answer for c1ccc(CCCN2CCN(CCOC(c3ccccc3)c3ccccc3)CC2)cc1 : Potency was 26.4 µM (active)

Short answer for CCc1c(C(=O)C(N)=O)c2c(OCC(=O)O)cccc2n1Cc1ccccc1 : Potency was inactive

Short answer for C=CC(=O)NCNC(=O)C=C : Potency was inactive

Short answer for C=CCON=C(C[C@H]1O[C@@H]2O[C@]3(C)CC[C@@H]4[C@H](C)CC[C@@H]([C@H]1C)[C@@]24OO3)[C@H]1O[C@@H]2O[C@]3(C)CC[C@H]4[C@H](C)CC[C@@H]([C@@H]1C)[C@@]24OO3 : Potency was 0.833 µM (active)
